EXPERIMENTAL TARGET: Prostaglandin G/H synthase 1 (Ovis aries)
Sequence (P05979 whole entry): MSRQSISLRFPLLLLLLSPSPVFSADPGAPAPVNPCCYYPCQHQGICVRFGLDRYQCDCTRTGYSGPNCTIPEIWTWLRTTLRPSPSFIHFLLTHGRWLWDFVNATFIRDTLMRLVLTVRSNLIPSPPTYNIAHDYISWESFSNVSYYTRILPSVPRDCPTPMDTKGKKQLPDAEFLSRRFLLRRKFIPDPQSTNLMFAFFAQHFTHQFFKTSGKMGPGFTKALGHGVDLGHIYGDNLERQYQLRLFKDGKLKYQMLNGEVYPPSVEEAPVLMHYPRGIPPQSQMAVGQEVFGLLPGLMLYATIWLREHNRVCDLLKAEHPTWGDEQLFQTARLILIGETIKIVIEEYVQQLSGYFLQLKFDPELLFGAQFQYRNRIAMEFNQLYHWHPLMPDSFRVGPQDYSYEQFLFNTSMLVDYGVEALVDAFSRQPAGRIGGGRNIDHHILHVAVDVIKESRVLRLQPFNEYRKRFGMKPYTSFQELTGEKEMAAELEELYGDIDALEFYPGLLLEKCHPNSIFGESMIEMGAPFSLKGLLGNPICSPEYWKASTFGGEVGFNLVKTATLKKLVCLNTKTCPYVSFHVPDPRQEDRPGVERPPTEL
OUTCOME MEASURE: IC50 (µM)
Answer format: numeric, µM implied, no suffix.

Examples from the recorded data:
>>> reading("CS(=O)(=O)c1ccc(-c2nc(-c3ccc(F)cc3)[nH]c2-c2ccccc2)cc1")
11.1
>>> reading("CS(=O)(=O)c1ccc(-c2nc(-c3ccccc3)[nH]c2-c2ccccc2)cc1")
9.9
>>> reading("Cc1ccc(-c2nc(-c3ccc(S(C)(=O)=O)cc3)c(-c3ccccc3)[nH]2)cc1")
10.4

q: Fill in: IC50 of `CS(=O)(=O)c1ccc(-c2nc(-c3ccc(O)cc3)[nH]c2-c2ccccc2)cc1` is ___
a: 11.3
